Data provenance: the supplement of paper PMC10567573

B1: INTS3 (parent)
chain: AQLQALRQKEVDFCISLLRERFME

Variants of: B1
Assay: protein stability index of a GFP-peptide fusion (GPS, HEK-293T) (PSI 1-6); higher = more stable;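 note: lentivirally expressed fusions sorted by FACS into six bins by GFP to DsRed ratio, PSI derived from sequencing read proportions per bin multiplied by bin number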
Conditions: c terminus: a fixed tail appended
Kindly state protein stability index for each of the entries shown.
Numbers only.

# sequenceRecord, protein stability index
records = [
    ("AFLQALRQKEVDFCISLLRERFME", 2.63),
    ("AQLQALRQKEVDFCISKLRERFME", 2),
]

Provide the reported protein stability index of each entry below, same order.
1. AQLQALRQKEVDFCISLLRERFMY
2. AQLQALRAKEVDFCISLLRERFME
3. AQLQALRQKEVQFCISLLRERFME
4. AQLQALRQKEVDFCASLLRERFME

2.66
2.62
2.12
1.62

Provide the reported protein stability index of each entry below, same order.
1. AQLQALRQKEVDFCINLLRERFME
2. AQLQALRQKEFDFCISLLRERFME
3. AQLQALRQKEVDFCISELRERFME
4. AQLQALRQKEVDFCISLLRLRFME
5. AQLQALRQKEVDFHISLLRERFME
6. AQLQALRQKEVDFCPSLLRERFME
7. AQLQALKQKEVDFCISLLRERFME
8. AQLQALRQLEVDFCISLLRERFME

1. 3.32
2. 2.1
3. 2.06
4. 2.34
5. 1.94
6. 2.07
7. 2.71
8. 2.48

Provide the reported protein stability index of each entry below, same order.
1. AQLQALRQKEVDFCISLLREMFME
2. AQLQALRQKEVDFCISLLRECFME
3. AQLQALRQKETDFCISLLRERFME
4. AQLQALRQKEVDFCISALRERFME
5. AQLQALRQKEVDFCISLFRERFME
6. AQLAALRQKEVDFCISLLRERFME
7. AQLQALRQKEVDFCISLLRERTME
8. AQLQALRQKEVDFKISLLRERFME

2.09
2.58
1.81
2.03
3.16
3.65
1.97
1.93

Provide the reported protein stability index of each entry below, same order.
1. HQLQALRQKEVDFCISLLRERFME
2. AQLQALRQKEVDFCISLLREAFME

3.79
2.41
